B1: library; numbered along this chain (parent)
chain: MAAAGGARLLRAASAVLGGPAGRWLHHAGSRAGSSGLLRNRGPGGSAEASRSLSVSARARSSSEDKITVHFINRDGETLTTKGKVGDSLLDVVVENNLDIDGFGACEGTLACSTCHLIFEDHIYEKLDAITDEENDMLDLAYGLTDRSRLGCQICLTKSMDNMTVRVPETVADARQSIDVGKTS

- Variants of: B1
- procedure-details: scaled log2 fold change in cell abundance, elesclomol vs control (0 = silent mean, 1 = nonsense mean) (scaled log2 ratio); higher = higher viability under elesclomol (loss of FDX1 cuproptosis function);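 further: variant abundance is its share of total variant reads in each endpoint sample, from next-generation sequencing of the integrated ORF PCR-amplified out of genomic DNA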
- test-conditions: with ABC1 FDX1 KO; elesclomol 5 nM; glucose 10 mM; 14 days
Response key: true (1) means scaled log2 fold change >= 0.07; false (0) means scaled log2 fold change < 0.07.

G83H; true (1)
L17E; true (1)
G33S; true (1)
V167M; true (1)
K182G; true (1)
I130P; false (0)
E134T; true (1)
T68Q; false (0)
F71E; true (1)
S52D; true (1)
D75K; false (0)
R8C; true (1)
G33L; false (0)
A174V; false (0)
S63C; true (1)
N73Q; false (0)
R51P; true (1)
P43M; true (1)
G108W; true (1)
I130G; false (0)
A47S; true (1)

All figures here come from the supplement of paper PMC12855868.
